Recorded Hepatocyte viability % (200 μM), one value per entry.
System: cryopreserved human hepatocytes (primary culture)
Assay: Hepatocyte viability (MTT test) on suspended cryopreserved human hepatocytes
Format: cell-based
Settings: 200 μM, 90 minutes incubation, relative to non treated cells, Table I campaign
Where a name gives a salt, the structure may show the parent alone.
quantity: Hepatocyte viability % (200 μM) (%)

- O=C1S/C(=C\c2ccc(O)cc2)C(=O)N1C/C=C/c1ccccc1: 63
- Cc1c(C)c2c(c(C)c1CCCCCCN)CCC(C)(COc1ccc(/C=C3\SC(=O)NC3=O)cc1)O2 (racemic) [E, trifluoroacetate]: 80
- Cc1c(C)c2c(c(C)c1O)CCC(C)(COc1ccc(CC3SC(=O)NC3=O)cc1)O2 (stereo not drawn) [K, troglitazone, reference compound]: 30
- Cc1c(C)c2c(c(C)c1CCCCCCNC(=O)OC(C)(C)C)CCC(C)(COc1ccc(/C=C3\SC(=O)NC3=O)cc1)O2 (racemic): 80
- CC1(CN2C(=O)S/C(=C\c3cc(Br)c(O)c(Br)c3)C2=O)CCCCC1 [L, reference compound]: 30
- Cc1c(C)c2c(c(C)c1CCCCCCN)CCC(C)(COc1ccc(/C=C3\SC(=O)N(C)C3=O)cc1)O2 (racemic) [D, trifluoroacetate]: 83
